Data credit: patent US9695155B2

Tested on: Italian ryegrass
Experiment: Test C preemergence
Format: in vivo, Lolium multiflorum
Conditions: 62 g ai/ha, preemergence; scale 0 (no effect) to 100 (complete control)
Test Readout: Ryegrass, Italian plant response rating

| Mol | Value Reported |
| --- | --- |
| FCc1cccc(Oc2ncc(F)cn2)c1-n1cc(C(F)(F)F)cn1 | 70 |
| N#Cc1cnn(-c2c(CF)cccc2Oc2ncc(F)cn2)c1 | 35 |
| N#Cc1cccc(Oc2ncc(Br)cn2)c1-n1cc(I)cn1 | 0 |
| FCc1cccc(Oc2ncc(Cl)cn2)c1-n1cc(Br)cn1 | 30 |

###

Test system: galium
Assay: Test A postemergence
Type: in vivo, Galium aparine
Conditions: 1000 g ai/ha, 0 to 100 scale, 0 no effect, 100 complete control
Items are presented alongside their recorded Plant response rating, Galium.

| Compound | Plant response rating, Galium |
| --- | --- |
| Fc1cccc(Oc2ncc(Cl)cn2)c1-n1ccnn1 [Compound 159] | 90 |
| FCc1cn(-c2c(F)cccc2Oc2ncc(Cl)cn2)nn1 [Compound 154] | 100 |
| FC(F)(F)c1cnn(-c2c(Oc3ncc(Cl)cn3)cccc2-c2nnco2)c1 [Compound 298] | 80 |
| CNC(=O)c1cccc(Oc2ncc(Cl)cn2)c1-n1cc(C(F)(F)F)cn1 [Compound 256] | 30 |

###

Items are presented alongside their recorded Plant response rating, Velvetleaf.
Tested on: velvetleaf
Assay: Test C postemergence
Format: in vivo, Abutilon theophrasti
Details: Postemergence, 31 g ai/ha; scale 0 to 100 (0 no effect, 100 complete control); 13 to 15 days
Source text: […]

| Mol | Measurement Target | Plant response rating, Velvetleaf |
| --- | --- | --- |
| N#Cc1cccc(Oc2ncc(F)cn2)c1-n1cc(Cl)cn1 | velvetleaf | 30 |
| FCc1cccc(Oc2ncc(Cl)cn2)c1-n1cc(Br)cn1 | velvetleaf | 55 |
| FC(F)(F)c1cnn(-c2ccccc2Oc2ncc(Cl)cn2)c1 | velvetleaf | 60 |
| N#Cc1cccc(Oc2ncc(F)cn2)c1-n1cc(Br)cn1 | velvetleaf | 20 |
| N#Cc1cccc(Oc2ncc(Br)cn2)c1-n1cc(I)cn1 | velvetleaf | 35 |
| CCOc1cnn(-c2c(C#N)cccc2Oc2ncc(F)cn2)c1 | velvetleaf | 15 |

###

Test system: giant foxtail
Assay: Test A postemergence
Format: in vivo, Setaria faberii
Conditions: 1000 g ai/ha, 0 to 100 scale, 0 no effect, 100 complete control
Test Readout: Plant response rating, Foxtail, Giant

| Mol | Value Reported |
| --- | --- |
| CNC(=O)c1cccc(Oc2ncc(Cl)cn2)c1-n1cc(C(F)(F)F)cn1 | 10 |
| CCN(C)C(=O)c1cccc(Oc2ncc(Cl)cn2)c1-n1cc(C(F)(F)F)cn1 | 10 |
| CC(=O)Oc1cccc(Oc2ncc(Cl)cn2)c1-n1cc(Br)cn1 | 10 |
| Oc1cccc(Oc2ncc(Cl)cn2)c1-n1cc(Cl)cn1 | 0 |
| NC(=O)c1cnn(-c2ccccc2Oc2ncc(Cl)cn2)c1 | 0 |
| FCc1cn(-c2c(F)cccc2Oc2ncc(Cl)cn2)nn1 | 100 |
| Clc1cnc(Oc2ccccc2-n2ccnn2)nc1 | 50 |
| Fc1ccc(Oc2ncc(Cl)cn2)c(-n2cc(Br)cn2)c1 | 80 |
| CCOC(=O)c1cn(-c2ccccc2Oc2ncc(Cl)cn2)nn1 | 0 |

###

Tested on: corn
Experiment: Test A postemergence
Format: in vivo, Zea mays
Conditions: 125 g ai/ha, 0 to 100 scale where 0 is no effect and 100 is complete control
Mark MET only when Corn plant response rating stays strictly below 20. Values equal to the cut-off are NOT MET.

| Compound | Group Label |
| --- | --- |
| Clc1cnc(Oc2cccc(Br)c2-n2cc(Br)nn2)nc1 [Compound 129] | NOT MET |
| CCOc1cnn(-c2ccccc2Oc2ncc(Cl)cn2)c1 [Compound 187] | MET |
| N#Cc1cccc(Oc2ncc(Cl)cn2)c1-n1cc(Br)cn1 [Compound 235] | MET |
| COc1cnn(-c2c(C#N)cccc2Oc2ncc(Cl)cn2)c1 [Compound 137] | NOT MET |
| N#Cc1cc(F)cc(Oc2ncc(Br)cn2)c1-n1cc(Br)cn1 [Compound 239] | MET |
| FC(F)(F)COc1cnn(-c2c(Br)cccc2Oc2ncc(Cl)cn2)c1 [Compound 128] | NOT MET |
| O=[N+]([O-])c1cnc(Oc2ccccc2-n2cc(Br)cn2)nc1 [Compound 225] | MET |
| N#Cc1cnn(-c2c(Oc3ncc(Cl)cn3)cccc2C(F)F)c1 [Compound 236] | NOT MET |
| CC(C)Oc1cnn(-c2c(Br)cccc2Oc2ncc(F)cn2)c1 [Compound 156] | MET |

###

System: giant foxtail
Assay: Test C preemergence
Assay type: in vivo, Setaria faberii
Conditions: Setaria faberi, pre-emergence; 125 g ai/ha, preemergence; scale 0 (no effect) to 100 (complete control); read-out: Foxtail, Giant plant response rating

| Mol | pest or weed control at 125 g/ha |
| --- | --- |
| FC(F)(F)c1cnn(-c2ccccc2Oc2ncc(Br)cn2)c1 | 100% |
| Clc1cnc(Oc2ccccc2-n2cc(Br)cn2)nc1 | 98% |
| N#Cc1cccc(Oc2ncc(Cl)cn2)c1-n1cnc(C(F)(F)F)c1 | 100% |
| FC(F)(F)COc1cnn(-c2ccccc2Oc2ncc(Cl)cn2)c1 | 100% |
| FC(F)(F)c1cn(-c2ccccc2Oc2ncc(Cl)cn2)nn1 | 100% |

###

System: rice
Assay: Test C flooded paddy test
Type: in vivo, Oryza sativa
Conditions: Flood, 125 g ai/ha; scale 0 to 100 (0 no effect, 100 complete control), 13 to 15 days
Items are presented alongside their recorded Plant response rating, Rice.
Test Readout: Plant response rating, Rice

| Mol | Measurement Target | Value Reported |
| --- | --- | --- |
| Brc1cnc(Oc2ccccc2-n2cc(Br)cn2)nc1 | rice | 10 |
| Clc1cnc(Oc2ccccc2-n2cc(Cl)cn2)nc1 | rice | 0 |
| Fc1cccc(Oc2ncc(Cl)cn2)c1-n1cc(I)cn1 | rice | 10 |

###

Test system: chickweed
Assay: Test C postemergence
Type: in vivo, Stellaria media
Settings: 125 g ai/ha, postemergence; visual rating, scale 0 to 100 (0 no effect, 100 complete control)
Items are presented alongside their recorded Plant response rating, Chickweed.
Test Readout: Plant response rating, Chickweed

| Molecule | Measurement Target | Test Readout | Value Reported |
| --- | --- | --- | --- |
| N#Cc1cccc(Oc2ncc(Cl)cn2)c1-n1cc(-n2ccc(C(F)(F)F)n2)cn1 [Compound 284] | chickweed | Plant response rating, Chickweed | 100 |
| N#Cc1cnn(-c2c(Oc3ncc(Cl)cn3)cccc2C(F)F)c1 [Compound 236] | chickweed | Plant response rating, Chickweed | 50 |
| CCCOc1cnn(-c2c(C#N)cccc2Oc2ncc(Cl)cn2)c1 [Compound 150] | chickweed | Plant response rating, Chickweed | 70 |
| Cc1cnc(Oc2cccc(C#N)c2-n2cc(I)cn2)nc1 [Compound 136] | chickweed | Plant response rating, Chickweed | 60 |
| N#Cc1cccc(Oc2ncc(Cl)cn2)c1-n1cc(I)cn1 [Compound 204] | chickweed | Plant response rating, Chickweed | 98 |

###

Test system: chickweed
Experiment: Test C postemergence
Type: in vivo, Stellaria media
Details: Postemergence, 31 g ai/ha; scale 0 to 100 (0 no effect, 100 complete control); 13 to 15 days

| Molecule | Measurement Target | Plant response rating, Chickweed |
| --- | --- | --- |
| N#Cc1cccc(Oc2ncc(F)cn2)c1-n1cc(Br)cn1 [Compound 62] | chickweed | 50 |
| CCOc1cn(-c2c(Br)cccc2Oc2ncc(Cl)cn2)nn1 [Compound 84] | chickweed | 10 |
| N#Cc1cccc(Oc2ncc(F)cn2)c1-n1cc(I)cn1 [Compound 86] | chickweed | 55 |
| Clc1cnc(Oc2cccc(Br)c2-n2cc(Br)cn2)nc1 [Compound 65] | chickweed | 50 |

###

Items are presented alongside their recorded Morningglory plant response rating.
Test system: morningglory
Experiment: Test A preemergence
Type: in vivo, Ipomoea spp.
Settings: 500 g ai/ha, 0 to 100 scale, 0 no effect, 100 complete control, approx. 10 days

| Mol | Measurement Target | Morningglory plant response rating |
| --- | --- | --- |
| Cc1ccc(Oc2ncc(Cl)cn2)c(-n2cc(Br)cn2)c1 | morningglory | 0 |
| Fc1cnc(Oc2ccccc2-n2cc(Cl)cn2)nc1 | morningglory | 60 |
| FC(F)(F)c1cnn(-c2ccccc2Oc2ncc(Cl)cn2)c1 | morningglory | 90 |

###

Items are presented alongside their recorded Soybean plant response rating.
Test system: soybean
Test: Test C preemergence
Type: in vivo, Glycine max
Details: 16 g ai/ha, preemergence; scale 0 to 100 (0 no effect, 100 complete control)
Test Readout: Soybean plant response rating

| Molecule | Measurement Target | Test Readout | Value Reported |
| --- | --- | --- | --- |
| N#Cc1cn(-c2c(Br)cccc2Oc2ncc(Cl)cn2)nn1 [Compound 116] | soybean | Soybean plant response rating | 0 |
| Fc1cccc(Oc2ncc(Cl)cn2)c1-n1cc(OCC(F)(F)F)cn1 [Compound 270] | soybean | Soybean plant response rating | 0 |
| FCc1cccc(Oc2ncc(Cl)cn2)c1-n1cc(Br)cn1 [Compound 83] | soybean | Soybean plant response rating | 5 |
| Fc1cccc(Oc2ncc(Cl)cn2)c1-n1cc(I)cn1 [Compound 179] | soybean | Soybean plant response rating | 0 |
| N#Cc1cnn(-c2c(Oc3ncc(Cl)cn3)cccc2C(F)F)c1 [Compound 236] | soybean | Soybean plant response rating | 35 |
| Cc1cnc(Oc2cccc(C#N)c2-n2cc(I)cn2)nc1 [Compound 136] | soybean | Soybean plant response rating | 20 |
| FCc1cccc(Oc2ncc(F)cn2)c1-n1cc(C(F)(F)F)cn1 [Compound 118] | soybean | Soybean plant response rating | 60 |
| N#Cc1cccc(Oc2ncc(Br)cn2)c1-n1cc(I)cn1 [Compound 88] | soybean | Soybean plant response rating | 0 |
